Recorded values, source patent US10576062B2.

ASSAY_SYSTEM: human LPA1 (Homo sapiens, UniProt Q92633)
Construct: expressed in transfected cells; host or cells: Chinese hamster ovary (CHO) cells
Sequence (Q92633 whole entry): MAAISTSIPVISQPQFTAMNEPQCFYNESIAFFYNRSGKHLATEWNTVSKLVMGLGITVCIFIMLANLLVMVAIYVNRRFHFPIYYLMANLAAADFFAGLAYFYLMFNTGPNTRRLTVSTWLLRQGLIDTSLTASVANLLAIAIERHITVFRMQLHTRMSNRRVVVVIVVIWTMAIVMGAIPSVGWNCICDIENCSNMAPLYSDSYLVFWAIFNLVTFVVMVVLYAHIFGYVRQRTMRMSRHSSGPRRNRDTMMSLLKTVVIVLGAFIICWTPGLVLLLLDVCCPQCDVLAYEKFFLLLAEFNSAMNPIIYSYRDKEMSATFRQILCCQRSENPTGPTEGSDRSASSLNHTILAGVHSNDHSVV
PROTOCOL: LPA1 functional antagonist assay (LPA-induced calcium flux)
Assay type: cell-based
MEASUREMENT_PARAMETERS: CHO cells overexpressing human LPA1; inhibition of calcium flux induced by 10 nM LPA; read-out: hLPA1 IC50
IC50 values for the compounds below.
The figure you give is taken to be in nM; do not add the unit.

Sample answers from the record:
Lab note: "Cc1nc(-c2nnn(C)c2CCOC(=O)N(C)Cc2ccccc2)ccc1O[C@H]1CCC[C@H](C(=O)O)C1" gave IC50 of 54

Entry under test: "CN(CC1CC1)C(=O)OCc1c(-c2ccc(O[C@H]3CCC[C@H](C(=O)O)C3)c(C#N)n2)nnn1C" . Its IC50 was 40

For "CCCCCN(C)C(=O)OCc1c(-c2cnc(O[C@H]3CCC[C@H](C(=O)O)C3)c(C)n2)nnn1C" the compound record lists IC50 as 56

Noted for "CCc1nc(-c2nnn(C)c2COC(=O)N2CCC3(CC3)C2)ccc1O[C@H]1CCC[C@H](C(=O)O)C1" : its IC50 reads 47

So, "CCCN(C)C(=O)OCc1c(-c2ccc(O[C@H]3CCC[C@H](C(=O)O)C3)c(OC)n2)nnn1C" ? Its IC50 was 4

Continuing:
Reported IC50 of "CN(CC1CCC1)C(=O)OCc1c(-c2ccc(O[C@H]3CCC[C@H](C(=O)O)C3)c(CF)n2)nnn1C" : 27

# compound "Cc1nc(-c2nnn(C)c2COC(=O)N(C)CC2(F)CCC2)cnc1O[C@H]1CCC[C@H](C(=O)O)C1" ; its IC50 = 122

Value of IC50 reported for the compound "Cc1nc(-c2nnn(C)c2COC(=O)N(C)CC(C)(F)F)ccc1O[C@H]1CCC[C@H](C(=O)O)C1" is 134

# IC50 of "CCCN(C)C(=O)OCc1c(-c2ccc(O[C@H]3CCC[C@H](C(=O)O)C3)c(C#N)n2)nnn1C" = 11

The measured IC50 associated with "CCc1nc(-c2nnn(C)c2COC(=O)NCc2ccccc2)ccc1O[C@H]1CCC[C@H](C(=O)O)C1" reads 46

Memo: "CCCC1(N(C)C(=O)OCc2c(-c3ccc(O[C@H]4CCC[C@H](C(=O)O)C4)c(CC)n3)nnn2C)CC1" , reported IC50: 133

Documented IC50 of "CCCCN(C)C(=O)OCc1c(-c2cnc(O[C@H]3CCC[C@H](C(=O)O)C3)c(C)n2)nnn1C" : 21

Entry under test: "CCCN(C)C(=O)OCCc1c(-c2ccc(O[C@H]3CCC[C@H](C(=O)O)C3)c(C)n2)nnn1C" . Its IC50 was 319

For record Cc1nc(-c2nnn(C)c2COC(=O)N(C)CC2CCC2)ccc1O[C@H]1CCC[C@](F)(C(=O)O)C1 (racemic) [Example 11] the listed IC50 is 12

Given item "CCCN(C)C(=O)OCc1c(-c2ccc(O[C@H]3CCC[C@H](C(=O)O)C3)c(COC)n2)nnn1C" , the value recorded as its IC50 is 475
